Task for the reader: assign each of the following compounds its reported composite z-score.
- assay-procedure: probe aWnt5a binding to arrayed compounds – biochemical, biotinylated probe, 635/667 nm fluorescence, primary screen (AID 1113);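 also: score merges 667 nm fluorescence intensity with signal-to-noise per printed feature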
- recorded-conditions: small-molecule microarray, higher = more signal

# input compound: NCCCCCNC(=O)[C@H]1C[C@H]2C(=O)N3CCC[C@H]3C(=O)N2[C@H]1c1cccc(OCCO)c1 ; wanted: its composite z-score 0.0375

# input compound: O=C1O[C@@H](c2ccccc2)[C@@H](c2ccccc2)N2[C@@H](c3ccc(OCCO)cc3)[C@]3(C(=O)Nc4ccc(C#CC5=CCCCC5)cc43)[C@@H](C(=O)NC[C@H](O)c3ccccc3)[C@H]12 ; wanted: its composite z-score -0.042

# input compound: CC(=O)NCCCC[C@@H]1NC(=O)[C@@H]2C[C@H](C(=O)NCCCCCN)[C@H](c3ccc(O)cc3)N2C1=O ; wanted: its composite z-score 0.258

# input compound: CC(C)[Si]1(C(C)C)OCc2cc(C3CC3)nc(-c3ccc(Oc4ccccc4)cc3)c21 ; wanted: its composite z-score -0.18

# input compound: C=C(/C(=C/C[C@H](OC(=O)c1ccncc1)c1ccc(CO)o1)c1cnc2ccccc2c1)C(C)C ; wanted: its composite z-score 0.0474

# input compound: CN(C)C(=O)[C@]1(CCC(=O)OC(C)(C)C)N=C(c2ccc(OCCCO)cc2)O[C@@H]1c1ccccc1CN=[N+]=[N-] ; wanted: its composite z-score 0.26

# input compound: O=C1CS(=O)(=O)C(c2cccc([N+](=O)[O-])c2)N1c1ccccc1 (configuration not stated) ; wanted: its composite z-score 0.157

###

Task for the reader: assign each of the following compounds its reported composite z-score.
- tested-system: Left-right determination factor 2 (Homo sapiens)
- assay-procedure: small molecules binding LEFTY2 protein – biochemical, small-molecule microarray, 635 nm fluorescence scan, primary screen (AID 1110)
- recorded-conditions: higher = more signal

# input compound: CN(C)c1ccc(C(O)C2C=CC3C(=O)NC(=O)C3N2Nc2ccccn2)cc1 (configuration not stated) ; wanted: its composite z-score 0.883

# input compound: COc1ccc([Si](C)(C)[C@@H]2[C@@H](CC(=O)N3CCC[C@H]3CO)O[C@]3(C(=O)N(Cc4cccc(N5C(=O)COc6ccccc65)c4)c4ccccc43)[C@H]2C)cc1 ; wanted: its composite z-score 0.486

# input compound: C#CCN([C@@H](Cc1ccccc1)C(=O)OC)[C@@H](/C=C/C1CC1)[C@H](O)Cc1ccccc1 ; wanted: its composite z-score 0.0156

# input compound: [N-]=[N+]=Nc1ccccc1C[C@@]1(C(N)=O)N=C(c2ccc(OCCCO)cc2)O[C@@H]1c1ccccc1N=[N+]=[N-] ; wanted: its composite z-score -0.0762

# input compound: C=CCNC(=O)[C@@H]1[C@H]2C(=O)O[C@H](c3ccccc3)[C@H](c3ccccc3)N2[C@H](c2ccccc2OCCO)[C@@]12C(=O)Nc1ccc(C#CCCO)cc12 ; wanted: its composite z-score 1.2

# input compound: CCN(CC)c1ccc(N2CC=CC34O[C@@H]5/C=C\CCCOC(=O)C5[C@H]3C(=O)N(C(C)CO)[C@@H]4C2=O)cc1 (some centres not stated) ; wanted: its composite z-score -0.469

# input compound: CCCCNC(=O)c1ccc(C#CC(C)(C)C)c(OC(C)=O)c1 ; wanted: its composite z-score 0.806

###

- assay-procedure: calcein-AM signal in unstimulated myeloma cells – cell-based, calcein-AM fluorescence, 48 h, PK04 Diversity Set, profiling panel (AID 1166);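 also: cells grown under basal conditions without added stimulus; test concentration not given here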
- recorded-conditions: RPMI8226 myeloma viability, higher = more signal
Assign classes using reported z-score values and the ranges lower level (below -2), middle level (-2 to below -0.4), upper level (-0.4 or more), please.

Lab note: which band did C=C[C@@H](OC)[C@H](OC(=O)Nc1ccc(OC)cc1)c1ccc(O)c(F)c1 land in? lower level

Lab note: which band did COc1ccc([Si](C)(C)[C@@H]2[C@@H](CC(=O)N3Cc4ccccc4C[C@H]3CO)O[C@]3(C(=O)N(Cc4ccc(N5C(=O)c6cccc7cccc5c67)cc4)c4ccccc43)[C@H]2C)cc1 land in? middle level

Lab note: which band did CC(=O)NCCCC[C@@H]1NC(=O)[C@@H]2C[C@H](C(=O)NCCCCCN)[C@H](c3cccc(OCCO)c3)N2C1=O land in? upper level

Lab note: which band did N[C@@H](Cc1ccccc1)C(=O)NCc1cn(Cc2ccccc2)nn1 land in? middle level

Lab note: which band did O=C1O[C@@H](c2ccccc2)[C@@H](c2ccccc2)N2[C@@H](c3ccc(OCCO)cc3)[C@]3(C(=O)Nc4ccc(C#CC5=CCCCC5)cc43)[C@@H](C(=O)NC[C@H](O)c3ccccc3)[C@H]12 land in? lower level

Lab note: which band did C=CCN1C(=O)[C@]2(CCC(=O)OC(C)(C)C)N=C(c3ccc(OCCCO)cc3)O[C@@H]2c2ccccc21 land in? lower level

Lab note: which band did O=C(NCc1ccc(F)cc1)[C@H]1C[C@H]2C(=O)NCC(=O)N2[C@H]1c1ccc(O)cc1 land in? upper level

Lab note: which band did C[C@@H]1NC(=O)[C@@H](Cc2ccccc2)NC(=O)[C@@]23C(=O)N[C@@H](Cc4ccccc4)C2[C@H](C)[C@@]2(C)O[C@H]2C3/C=C/C/C=C\CNC1=O (stereo not given in full) land in? upper level

Lab note: which band did COC(=O)[C@@]1(Cc2ccccc2)[C@H]2c3cc(C(=O)N4CCCC4)n(CCc4ccccn4)c3C[C@H]2CN1C(=O)c1ccccc1 land in? middle level

Lab note: which band did COc1ccc(CCNC(=O)[C@@]2(Cc3ccccc3I)c3ccccc3C(=O)N(C3CCCCC3)[C@H]2c2ccc(CO)cc2)cc1 land in? lower level

Lab note: which band did CN(C)C(=O)[C@@]1(Cc2ccccc2)N=C(c2ccc(OCCCO)cc2)O[C@H]1c1ccccc1 land in? lower level

Lab note: which band did NC(=O)[C@H]1[C@@H]2C(=O)O[C@@H](c3ccccc3)[C@@H](c3ccccc3)N2[C@@H](c2ccc(OCCO)cc2)[C@]12C(=O)Nc1ccc(C#CCCO)cc12 land in? upper level

Lab note: which band did COC(=O)C1=CC(CCCO)=CC(c2ccc(CN3CCCC3)cc2)N(Cc2cccc(OC(F)(F)F)c2)C=C1C(=O)OC (stereo not given) land in? middle level

Lab note: which band did C=CC[C@@]1(C(=O)NCCCOC)N=C(c2ccc(OCCCO)cc2)O[C@@H]1c1ccccc1N=[N+]=[N-] land in? upper level

Lab note: which band did CCCCCCCCCC(O)C1C=CC2C(=O)N(c3ccccc3)C(=O)C2N1Nc1cc(OC)c(OC)c(OC)c1 (stereo not given) land in? lower level

###

Task for the reader: assign each of the following compounds its reported composite z-score.
- tested-system: Torsin-1A (Homo sapiens) (UniProt O14656)
- Sequence (O14656 whole entry, looked up): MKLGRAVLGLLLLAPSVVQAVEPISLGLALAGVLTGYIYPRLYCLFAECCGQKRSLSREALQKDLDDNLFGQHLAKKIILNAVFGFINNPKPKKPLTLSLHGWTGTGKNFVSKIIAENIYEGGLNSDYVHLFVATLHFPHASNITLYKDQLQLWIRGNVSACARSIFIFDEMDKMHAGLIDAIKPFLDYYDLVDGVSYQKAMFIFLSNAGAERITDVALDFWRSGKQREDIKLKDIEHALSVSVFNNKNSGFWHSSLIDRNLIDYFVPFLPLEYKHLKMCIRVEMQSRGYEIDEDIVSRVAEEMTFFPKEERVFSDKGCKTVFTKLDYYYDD
- assay-procedure: torsin A mutant lysate binding on microarrays – cell lysate, small-molecule microarray, COS7 lysate, 635/667 nm fluorescence, primary screen (AID 1150);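 also: score pools 667 nm emission and signal to noise measuring lysate protein binding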
- recorded-conditions: COS7 hTOR1A mutant lysate, 635 nm fluorescence, higher = more signal
// return just the number, without any unit appended

Test system Torsin-1A (Homo sapiens) (UniProt O14656); read-out composite z-score; what value for CCCCCCCCCC(O)C1C=CC2C(=O)N(c3ccccc3)C(=O)C2N1Nc1cc(OC)c(OC)c(OC)c1 (configuration not stated) ? -0.241

Test system Torsin-1A (Homo sapiens) (UniProt O14656); read-out composite z-score; what value for CC(C)N1CC=CC23O[C@@H]4C=CCCOC(=O)C4[C@H]2C(=O)N(CCCO)[C@@H]3C1=O (some centres not stated) ? -0.457

Test system Torsin-1A (Homo sapiens) (UniProt O14656); read-out composite z-score; what value for COC(=O)C1=CC(CCCO)=CC(c2ccc(CN3CCCC3)cc2)N(Cc2cccc(OC(F)(F)F)c2)C=C1C(=O)OC (configuration not stated) ? 1.18

Test system Torsin-1A (Homo sapiens) (UniProt O14656); read-out composite z-score; what value for Cc1ccc(C(C)CC(O)C2C=CC3C(=O)N(c4ccccc4)C(=O)C3N2Nc2ccccc2)o1 (configuration not stated) ? 1.11

Test system Torsin-1A (Homo sapiens) (UniProt O14656); read-out composite z-score; what value for O=C1O[C@H](c2ccccc2)[C@H](c2ccccc2)N2[C@H]1[C@@H](C(=O)O)[C@]1(C(=O)Nc3ccc(C#CCCO)cc31)[C@H]2c1ccccc1OCCO ? -0.199

Test system Torsin-1A (Homo sapiens) (UniProt O14656); read-out composite z-score; what value for CCCCCCCCCCC(O)C1C=CC2C(=O)N(c3ccccc3)C(=O)C2N1Nc1ccc(C#N)cc1 (configuration not stated) ? 0.646

Test system Torsin-1A (Homo sapiens) (UniProt O14656); read-out composite z-score; what value for COC(=O)[C@@]1(Cc2ccc(OC)cc2)[C@H]2c3cc(C(=O)N(C)C)n(Cc4ccc(OC(F)(F)F)cc4)c3C[C@H]2CN1C(=O)c1ccccc1 ? 0.555
